# Procedure Summary: Cmax in Beagle dog plasma at […] administered via oral gavage measured 24 hrs post dose by LC/MS/MS analysis
# Type: ADME, organism-based, Canis lupus familiaris
# Set-up: dose 2.5 mg/kg, route oral
Readout Kind: Cmax at 24 h (nM)

- C[C@H](NC(=O)c1c(N)nn2cccnc12)c1cc2cccc(C#Cc3cnn(C)c3)c2c(=O)n1-c1ccccc1: 1900

###

# Procedure Summary: Oral bioavailability in cynomolgus monkey plasma at […] measured 24 hrs post dose by LC/MS/MS analysis
# Assay type: ADME, organism-based, Macaca fascicularis
Readout Kind: bioavailability at 24 h

* C[C@H](NC(=O)c1c(N)nn2cccnc12)c1cc2cccc(C#Cc3cnn(C)c3)c2c(=O)n1-c1ccccc1 | 31%
